Biological target: human ether-à-go-go-related gene (hERG) potassium channel (human, UniProt Q12809);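 note: peak tail current of the secondary pulse compared with the same well before compound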
Sequence (Q12809 whole entry, looked up): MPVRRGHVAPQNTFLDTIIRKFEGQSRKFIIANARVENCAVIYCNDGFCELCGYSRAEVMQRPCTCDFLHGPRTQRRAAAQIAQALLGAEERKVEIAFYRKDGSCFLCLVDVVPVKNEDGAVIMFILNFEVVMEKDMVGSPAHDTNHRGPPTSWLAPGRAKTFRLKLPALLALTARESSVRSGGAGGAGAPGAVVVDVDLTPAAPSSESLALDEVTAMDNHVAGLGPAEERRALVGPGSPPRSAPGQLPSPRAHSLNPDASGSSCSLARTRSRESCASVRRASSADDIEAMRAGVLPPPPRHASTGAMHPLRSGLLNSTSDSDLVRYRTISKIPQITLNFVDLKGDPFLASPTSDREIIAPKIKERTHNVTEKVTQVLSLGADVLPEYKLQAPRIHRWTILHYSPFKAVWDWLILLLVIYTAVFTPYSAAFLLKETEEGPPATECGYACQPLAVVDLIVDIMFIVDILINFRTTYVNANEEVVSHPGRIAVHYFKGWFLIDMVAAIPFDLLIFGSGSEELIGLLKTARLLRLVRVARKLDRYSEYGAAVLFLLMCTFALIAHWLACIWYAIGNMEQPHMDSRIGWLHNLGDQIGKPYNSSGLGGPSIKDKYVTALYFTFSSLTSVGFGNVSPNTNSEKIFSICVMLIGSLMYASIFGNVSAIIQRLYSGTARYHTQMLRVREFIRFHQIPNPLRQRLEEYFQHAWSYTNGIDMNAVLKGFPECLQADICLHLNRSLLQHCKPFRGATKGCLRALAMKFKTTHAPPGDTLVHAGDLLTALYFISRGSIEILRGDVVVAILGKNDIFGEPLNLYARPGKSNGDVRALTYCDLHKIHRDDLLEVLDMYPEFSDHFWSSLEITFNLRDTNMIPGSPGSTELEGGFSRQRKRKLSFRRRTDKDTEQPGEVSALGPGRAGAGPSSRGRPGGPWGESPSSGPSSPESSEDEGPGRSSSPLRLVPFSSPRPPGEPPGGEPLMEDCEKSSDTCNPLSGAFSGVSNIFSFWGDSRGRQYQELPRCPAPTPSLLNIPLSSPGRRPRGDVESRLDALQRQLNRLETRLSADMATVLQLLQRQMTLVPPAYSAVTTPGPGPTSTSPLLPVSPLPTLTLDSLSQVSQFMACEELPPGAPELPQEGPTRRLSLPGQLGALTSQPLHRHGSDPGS
Assay: primary screen, population patch clamp on CHO cells stably expressing hERG; higher = less effect of the substance
Screen size: about 310,000 compounds; about 14,000 (4.5%) showed an effect of 50% or more. Effects have a minus sign here. Many of the other results were omitted from the sample, so strong results are more common in it than they were.
Catalogue of hERG current change (%, negative = inhibition) at 10uM values
ENDPOINT_LABEL: hERG current change (%, negative = inhibition) at 10uM (%)

| COMPOUND | TARGET_OR_SYSTEM | RECORDED_VALUE |
| --- | --- | --- |
| Cc1cc2ncn(C(=O)N3CCCCC3)c2cc1C | human ether-à-go-go-related gene (hERG) potassium channel (human, UniProt Q12809) | 3.24 |
| CCCc1cc(=O)n2nc(N3CCC(C(=O)NCc4ccc(C)o4)CC3)sc2n1 | human ether-à-go-go-related gene (hERG) potassium channel (human, UniProt Q12809) | -61.6 |
| CCCc1cc(=O)n2nc(N3CCC(C(=O)NCc4ccco4)CC3)sc2n1 | human ether-à-go-go-related gene (hERG) potassium channel (human, UniProt Q12809) | -44.4 |
| O=C(NCCOc1cccc2cccnc12)c1cccs1 | human ether-à-go-go-related gene (hERG) potassium channel (human, UniProt Q12809) | -12.8 |
| COc1ccc(S(=O)(=O)N2CCCCCC2)cc1C(=O)NCc1ccc(C)cc1 | human ether-à-go-go-related gene (hERG) potassium channel (human, UniProt Q12809) | -29.1 |
| COc1ccc(NC(=O)Cn2c(=O)n(-c3ccccc3)c(=O)c3sccc32)c(OC)c1 | human ether-à-go-go-related gene (hERG) potassium channel (human, UniProt Q12809) | 0.835 |
| Cc1cc(=O)n2nc(N3CCCC(C(=O)NCc4ccc(Cl)cc4)C3)sc2n1 (stereo not shown) | human ether-à-go-go-related gene (hERG) potassium channel (human, UniProt Q12809) | -71.7 |
| COc1ccc(S(=O)(=O)N2CCCCCC2)cc1C(=O)N(C)Cc1cccs1 | human ether-à-go-go-related gene (hERG) potassium channel (human, UniProt Q12809) | -40.5 |
| COc1ccc(CCNC(=S)NCCc2ccc(OC)c(OC)c2)cc1OC | human ether-à-go-go-related gene (hERG) potassium channel (human, UniProt Q12809) | 5.11 |
| COCCCNC(=O)C(=O)N/N=C/c1ccc(OCC(=O)Nc2cccc(Cl)c2C)c(OC)c1 | human ether-à-go-go-related gene (hERG) potassium channel (human, UniProt Q12809) | -0.6 |
